# TARGET_OF_ASSAY: CHRM4 (Homo sapiens)
# Construct: purchased Promega (in-house HiBiT-GPCR construct library, NanoBRET)
# Sequence (P08173 whole entry): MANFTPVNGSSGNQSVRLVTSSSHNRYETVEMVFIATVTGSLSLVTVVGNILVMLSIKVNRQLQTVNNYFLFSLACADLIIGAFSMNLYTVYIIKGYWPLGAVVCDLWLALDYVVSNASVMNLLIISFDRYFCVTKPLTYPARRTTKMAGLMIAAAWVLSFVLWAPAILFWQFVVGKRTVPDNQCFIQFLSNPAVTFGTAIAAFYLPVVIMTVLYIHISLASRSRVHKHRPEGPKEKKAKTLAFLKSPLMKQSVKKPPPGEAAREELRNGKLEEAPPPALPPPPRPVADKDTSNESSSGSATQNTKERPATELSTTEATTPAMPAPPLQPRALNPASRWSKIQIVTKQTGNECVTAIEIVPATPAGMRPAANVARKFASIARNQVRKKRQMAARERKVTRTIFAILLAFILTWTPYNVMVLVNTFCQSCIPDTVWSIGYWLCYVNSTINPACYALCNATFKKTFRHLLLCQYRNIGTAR
# ASSAY_DETAILS: NanoBRET screen HiBiT-CHRM4 in HEK293
# Assay type: binding
# ASSAY_SETUP: CHRM4; tracer 0.1μM
MEASUREMENT_KIND: NanoBRET Fold Response

- N#CN=C(NCCCOc1cccc(CN2CCCCC2)c1)NCCNC(=O)CCOCCOCCOCCOCCNC(=O)CCc1ccc2n1[B-](F)(F)[N+]1=C(c3ccc[nH]3)C=CC1=C2: 1.17
- Cc1nc2n(c(=O)c1CCN1CCC(c3noc4cc(F)ccc34)CC1)CCCC2OC(=O)NCCOCCOCCOCCOCCNC(=O)CCc1ccc2n1[B-](F)(F)[N+]1=C(c3ccc[nH]3)C=CC1=C2 (stereo not drawn): 1.10
- Cc1cc2c(s1)Nc1ccccc1N=C2N1CCN(CCCNC(=O)CCOCCOCCOCCOCCNC(=O)CCc2ccc3n2[B-](F)(F)[N+]2=C(c4ccc[nH]4)C=CC2=C3)CC1: 1.07

====

# TARGET_OF_ASSAY: HTR2C (Homo sapiens)
# Construct: purchased Promega (in-house HiBiT-GPCR construct library, NanoBRET)
# Sequence (P28335 33-458): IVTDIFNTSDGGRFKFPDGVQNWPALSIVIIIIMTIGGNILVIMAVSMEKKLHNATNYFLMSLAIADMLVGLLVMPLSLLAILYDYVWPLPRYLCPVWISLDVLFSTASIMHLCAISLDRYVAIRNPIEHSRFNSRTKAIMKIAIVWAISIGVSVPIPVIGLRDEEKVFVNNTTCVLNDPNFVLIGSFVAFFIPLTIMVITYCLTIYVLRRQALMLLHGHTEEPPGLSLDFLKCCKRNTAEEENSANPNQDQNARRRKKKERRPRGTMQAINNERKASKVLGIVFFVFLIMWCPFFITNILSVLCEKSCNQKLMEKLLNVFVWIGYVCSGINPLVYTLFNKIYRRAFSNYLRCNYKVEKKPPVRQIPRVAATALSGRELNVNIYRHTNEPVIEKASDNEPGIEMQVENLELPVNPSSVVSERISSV
# ASSAY_DETAILS: NanoBRET screen HiBiT-HTR2C in HEK293
# Assay type: binding
# ASSAY_SETUP: HTR2C; tracer 1μM
MEASUREMENT_KIND: NanoBRET Fold Response

- O=C(CCOCCOCCOCCOCCNC(=O)CCc1ccc2n1[B-](F)(F)[N+]1=C(c3ccc[nH]3)C=CC1=C2)NCCCN1CCN(C2=Nc3ccccc3Oc3ccc(Cl)cc32)CC1 [Loxapine-a-2-NB590]: 1.62
- N#CN=C(NCCCOc1cccc(CN2CCCCC2)c1)NCCNC(=O)CCOCCOCCOCCOCCNC(=O)CCc1ccc2n1[B-](F)(F)[N+]1=C(c3ccc[nH]3)C=CC1=C2 [Aminopotentidine-2-NB590]: 1.04
- Cc1nc2n(c(=O)c1CCN1CCC(c3noc4cc(F)ccc34)CC1)CCCC2OC(=O)NCCOCCOCCOCCOCCNC(=O)CCc1ccc2n1[B-](F)(F)[N+]1=C(c3ccc[nH]3)C=CC1=C2 (centres unmarked) [Risperidone-2-NB590]: 2.15
- CCCn1c(=O)c2[nH]c(-c3ccc(OCC(=O)NCCNC(=O)CCOCCNC(=O)c4ccc(CNC(=O)CCc5ccc6n5[B-](F)(F)[N+]5=C(c7ccc[nH]7)C=CC5=C6)cc4)cc3)nc2n(CCC)c1=O [XAC-3-NB590]: 0.88
- COc1ccccc1N1CCN(CCCCN2C(=O)c3ccc(CNC(=O)CCOCCOCCOCCOCCNC(=O)CCc4ccc5n4[B-](F)(F)[N+]4=C(c6ccc[nH]6)C=CC4=C5)cc3C2=O)CC1 [NAN-190-2-NB590]: 1.14

====

# TARGET_OF_ASSAY: MC4R (Homo sapiens)
# Construct: purchased Promega (in-house HiBiT-GPCR construct library, NanoBRET)
# Sequence (P32245 whole entry): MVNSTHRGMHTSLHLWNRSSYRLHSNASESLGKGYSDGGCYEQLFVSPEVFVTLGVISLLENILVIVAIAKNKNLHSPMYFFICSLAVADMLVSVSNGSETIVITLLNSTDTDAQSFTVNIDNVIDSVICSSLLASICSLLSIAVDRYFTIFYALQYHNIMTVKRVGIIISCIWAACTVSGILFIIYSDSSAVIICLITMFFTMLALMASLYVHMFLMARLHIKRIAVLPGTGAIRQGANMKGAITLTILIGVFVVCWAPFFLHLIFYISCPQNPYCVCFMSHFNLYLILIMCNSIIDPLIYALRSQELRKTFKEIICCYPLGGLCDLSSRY
# ASSAY_DETAILS: NanoBRET screen HiBiT-MC4R in HEK293
# Format: binding
# ASSAY_SETUP: MC4R; tracer 0.1μM
Quick list: NanoBRET Fold Response per entry.
MEASUREMENT_KIND: NanoBRET Fold Response

- COc1ccccc1N1CCN(CCCCN2C(=O)c3ccc(CNC(=O)CCOCCOCCOCCOCCNC(=O)CCc4ccc5n4[B-](F)(F)[N+]4=C(c6ccc[nH]6)C=CC4=C5)cc3C2=O)CC1: 0.97
- O=C(CCc1ccc2n1[B-](F)(F)[N+]1=C(c3ccc[nH]3)C=CC1=C2)NCCOCCOCCNC(=O)OCCOCCN1CCN(C2=Nc3ccccc3Sc3ccccc32)CC1: 0.97
- O=C(CCOCCOCCOCCOCCNC(=O)CCc1ccc2n1[B-](F)(F)[N+]1=C(c3ccc[nH]3)C=CC1=C2)NCCCN1CCN(C2=Nc3ccccc3Oc3ccc(Cl)cc32)CC1: 1.04
- CC(C)N(CC[C@H](c1ccccc1)c1cc(CCNC(=O)CCOCCOCCOCCOCCNC(=O)CCc2ccc3n2[B-](F)(F)[N+]2=C(c4ccc[nH]4)C=CC2=C3)ccc1O)C(C)C: 1.07
- Cc1nc2n(c(=O)c1CCN1CCC(c3noc4cc(F)ccc34)CC1)CCCC2OC(=O)NCCOCCOCCOCCOCCNC(=O)CCc1ccc2n1[B-](F)(F)[N+]1=C(c3ccc[nH]3)C=CC1=C2 (centres unmarked): 1.03
- CC(C)N(CC[C@H](c1ccccc1)c1cc(CCNC(=O)c2ccc(CNC(=O)CCc3ccc4n3[B-](F)(F)[N+]3=C(c5ccc[nH]5)C=CC3=C4)cc2)ccc1O)C(C)C: 1.00
- COc1ccccc1N1CCN(CCCCN2C(=O)c3ccc(CNC(=O)CCOCCNC(=O)c4ccc(CNC(=O)CCc5ccc6n5[B-](F)(F)[N+]5=C(c7ccc[nH]7)C=CC5=C6)cc4)cc3C2=O)CC1: 1.05
- O=C(CCc1ccc2n1[B-](F)(F)[N+]1=C(c3ccc[nH]3)C=CC1=C2)NCc1ccc(C(=O)NCCOCCC(=O)N[C@@H]2CC[C@@]3(O)[C@H]4Cc5ccc(O)c6c5[C@@]3(CCN4CC3CC3)[C@H]2O6)cc1 [Naltrexone-3-NB590]: 1.06
- CCCn1c(=O)c2[nH]c(-c3ccc(OCC(=O)NCCNC(=O)CCOCCNC(=O)c4ccc(CNC(=O)CCc5ccc6n5[B-](F)(F)[N+]5=C(c7ccc[nH]7)C=CC5=C6)cc4)cc3)nc2n(CCC)c1=O: 1.02
- N#CN=C(NCCCOc1cccc(CN2CCCCC2)c1)NCCNC(=O)CCOCCOCCOCCOCCNC(=O)CCc1ccc2n1[B-](F)(F)[N+]1=C(c3ccc[nH]3)C=CC1=C2: 0.99
- Cc1cc2c(s1)Nc1ccccc1N=C2N1CCN(CCCNC(=O)CCOCCOCCOCCOCCNC(=O)CCc2ccc3n2[B-](F)(F)[N+]2=C(c4ccc[nH]4)C=CC2=C3)CC1: 1.00

====

# TARGET_OF_ASSAY: HTR1B (Homo sapiens, UniProt P28222)
# Construct: purchased Promega (in-house HiBiT-GPCR construct library, NanoBRET)
# Sequence (P28222 whole entry): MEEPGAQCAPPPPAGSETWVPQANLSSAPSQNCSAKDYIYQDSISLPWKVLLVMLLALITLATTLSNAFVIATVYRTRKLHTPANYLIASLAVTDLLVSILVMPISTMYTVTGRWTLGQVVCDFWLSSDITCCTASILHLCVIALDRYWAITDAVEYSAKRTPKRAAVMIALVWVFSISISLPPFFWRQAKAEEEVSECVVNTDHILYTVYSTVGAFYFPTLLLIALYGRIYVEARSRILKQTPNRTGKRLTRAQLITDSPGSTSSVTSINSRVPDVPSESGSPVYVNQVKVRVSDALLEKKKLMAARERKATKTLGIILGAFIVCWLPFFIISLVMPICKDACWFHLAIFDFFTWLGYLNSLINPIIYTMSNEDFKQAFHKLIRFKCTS
# ASSAY_DETAILS: NanoBRET screen HiBiT-HTR1B in HEK293
# Assay type: binding
# ASSAY_SETUP: HTR1B; tracer 1μM
MEASUREMENT_KIND: NanoBRET Fold Response

• N#CN=C(NCCCOc1cccc(CN2CCCCC2)c1)NCCNC(=O)CCOCCOCCOCCOCCNC(=O)CCc1ccc2n1[B-](F)(F)[N+]1=C(c3ccc[nH]3)C=CC1=C2 = 1.03
• O=C(CCOCCOCCOCCOCCNC(=O)CCc1ccc2n1[B-](F)(F)[N+]1=C(c3ccc[nH]3)C=CC1=C2)NCCCN1CCN(C2=Nc3ccccc3Oc3ccc(Cl)cc32)CC1 = 2.84
• O=C(CCc1ccc2n1[B-](F)(F)[N+]1=C(c3ccc[nH]3)C=CC1=C2)NCCOCCOCCNC(=O)OCCOCCN1CCN(C2=Nc3ccccc3Sc3ccccc32)CC1 = 1.58
• Cc1cc2c(s1)Nc1ccccc1N=C2N1CCN(CCCNC(=O)CCOCCOCCOCCOCCNC(=O)CCc2ccc3n2[B-](F)(F)[N+]2=C(c4ccc[nH]4)C=CC2=C3)CC1 = 2.81
• COc1ccccc1N1CCN(CCCCN2C(=O)c3ccc(CNC(=O)CCOCCNC(=O)c4ccc(CNC(=O)CCc5ccc6n5[B-](F)(F)[N+]5=C(c7ccc[nH]7)C=CC5=C6)cc4)cc3C2=O)CC1 = 1.42
• CCCn1c(=O)c2[nH]c(-c3ccc(OCC(=O)NCCNC(=O)CCOCCNC(=O)c4ccc(CNC(=O)CCc5ccc6n5[B-](F)(F)[N+]5=C(c7ccc[nH]7)C=CC5=C6)cc4)cc3)nc2n(CCC)c1=O = 1.24
• CC(C)N(CC[C@H](c1ccccc1)c1cc(CCNC(=O)CCOCCOCCOCCOCCNC(=O)CCc2ccc3n2[B-](F)(F)[N+]2=C(c4ccc[nH]4)C=CC2=C3)ccc1O)C(C)C = 1.12
• Cc1nc2n(c(=O)c1CCN1CCC(c3noc4cc(F)ccc34)CC1)CCCC2OC(=O)NCCOCCOCCOCCOCCNC(=O)CCc1ccc2n1[B-](F)(F)[N+]1=C(c3ccc[nH]3)C=CC1=C2 (centres unmarked) = 2.70
• COc1ccccc1N1CCN(CCCCN2C(=O)c3ccc(CNC(=O)CCOCCOCCOCCOCCNC(=O)CCc4ccc5n4[B-](F)(F)[N+]4=C(c6ccc[nH]6)C=CC4=C5)cc3C2=O)CC1 = 1.25
• CC(C)N(CC[C@H](c1ccccc1)c1cc(CCNC(=O)c2ccc(CNC(=O)CCc3ccc4n3[B-](F)(F)[N+]3=C(c5ccc[nH]5)C=CC3=C4)cc2)ccc1O)C(C)C = 1.33
• O=C(CCc1ccc2n1[B-](F)(F)[N+]1=C(c3ccc[nH]3)C=CC1=C2)NCc1ccc(C(=O)NCCOCCC(=O)N[C@@H]2CC[C@@]3(O)[C@H]4Cc5ccc(O)c6c5[C@@]3(CCN4CC3CC3)[C@H]2O6)cc1 [Naltrexone-3-NB590] = 1.33
